Each entry below lists one item and its recorded IC50 (µg/ml) with constrains value.
# Target: HIV Env of isolate Ce0393_C3 (clade C) (HIV)
# Procedure text: cell-based or functional assay
API: value field is a number in µg/mL; no unit string.

Record ePGDM13 (antibody, V domains shown) VH: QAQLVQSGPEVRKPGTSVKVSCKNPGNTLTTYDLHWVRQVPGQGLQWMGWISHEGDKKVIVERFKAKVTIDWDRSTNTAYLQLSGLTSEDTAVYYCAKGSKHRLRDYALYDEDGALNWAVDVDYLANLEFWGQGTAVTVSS VL: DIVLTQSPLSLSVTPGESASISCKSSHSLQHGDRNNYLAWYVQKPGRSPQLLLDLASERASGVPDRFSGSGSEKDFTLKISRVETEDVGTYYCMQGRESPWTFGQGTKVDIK . Reported IC50 (µg/ml) with constrains: 0.006

Record PGDM1400 (antibody, V domains shown) VH: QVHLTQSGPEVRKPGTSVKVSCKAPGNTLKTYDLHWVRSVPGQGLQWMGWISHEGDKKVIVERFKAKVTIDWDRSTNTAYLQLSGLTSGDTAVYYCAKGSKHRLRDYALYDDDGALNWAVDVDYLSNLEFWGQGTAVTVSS VL: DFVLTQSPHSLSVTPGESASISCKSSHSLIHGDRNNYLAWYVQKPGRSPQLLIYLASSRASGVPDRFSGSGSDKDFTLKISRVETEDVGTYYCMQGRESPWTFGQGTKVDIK . Reported IC50 (µg/ml) with constrains: 0.009

Record ePGDM9 (antibody, V domains shown) VH: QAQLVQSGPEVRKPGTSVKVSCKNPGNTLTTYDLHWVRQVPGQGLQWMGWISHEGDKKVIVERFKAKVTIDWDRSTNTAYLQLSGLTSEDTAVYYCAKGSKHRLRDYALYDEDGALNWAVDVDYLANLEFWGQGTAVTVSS VL: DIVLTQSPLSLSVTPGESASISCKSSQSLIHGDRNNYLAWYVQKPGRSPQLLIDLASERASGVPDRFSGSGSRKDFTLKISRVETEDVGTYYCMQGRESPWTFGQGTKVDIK . Reported IC50 (µg/ml) with constrains: 0.004

Record ePGDM5 (antibody, V domains shown) VH: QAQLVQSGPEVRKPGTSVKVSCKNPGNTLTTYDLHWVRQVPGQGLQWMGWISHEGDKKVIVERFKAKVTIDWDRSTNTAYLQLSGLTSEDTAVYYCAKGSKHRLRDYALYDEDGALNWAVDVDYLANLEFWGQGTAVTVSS VL: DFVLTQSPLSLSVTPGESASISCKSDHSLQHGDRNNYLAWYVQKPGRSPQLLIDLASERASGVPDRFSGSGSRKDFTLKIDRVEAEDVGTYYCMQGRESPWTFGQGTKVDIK . Reported IC50 (µg/ml) with constrains: 0.016
